- Test system: mock-infected MT-4 cells
- assay-info: Cytotoxicity: viability of mock-infected cells by the MTT method
- Format: cell-based, human
- measurement-setup: MTT
property: CC50

Task item: Form field - read-out: CC50; system: mock-infected MT-4 cells; submitted item: CCCCNc1nc(C(C)c2c(F)cccc2F)cc(=O)[nH]1 (stereo not drawn) [MC 1189]
Reply: 52 µM

Task item: Form field - read-out: CC50; system: mock-infected MT-4 cells; submitted item: Cc1c(Cc2c(F)cccc2F)nc(N2CCOCC2)[nH]c1=O [MC 1205]
Reply: > 200 µM

Task item: Form field - read-out: CC50; system: mock-infected MT-4 cells; submitted item: CCN(CC)c1nc(Cc2c(F)cccc2F)cc(=O)[nH]1 [MC 1202]
Reply: > 200 µM

Task item: Form field - read-out: CC50; system: mock-infected MT-4 cells; submitted item: CCCNc1nc(C(C)c2c(F)cccc2F)cc(=O)[nH]1 (stereo not drawn) [MC 1190]
Reply: 103 µM

Task item: Form field - read-out: CC50; system: mock-infected MT-4 cells; submitted item: CSCSc1nc(Cc2c(F)cccc2F)cc(=O)[nH]1 [MC 1161]
Reply: > 200 µM

Task item: Form field - read-out: CC50; system: mock-infected MT-4 cells; submitted item: CC(c1cc(=O)[nH]c(NC2CCCCC2)n1)c1c(F)cccc1F (stereo not drawn) [MC 1180]
Reply: 56 µM

Task item: Form field - read-out: CC50; system: mock-infected MT-4 cells; submitted item: CN(C)c1nc(Cc2c(F)cccc2F)cc(=O)[nH]1 [MC 1182]
Reply: > 200 µM

Task item: Form field - read-out: CC50; system: mock-infected MT-4 cells; submitted item: CCCCNc1nc(Cc2c(F)cccc2F)c(C)c(=O)[nH]1 [MC 1185]
Reply: > 200 µM

Task item: Form field - read-out: CC50; system: mock-infected MT-4 cells; submitted item: Cc1c(C(C)c2c(F)cccc2F)nc(SCC(C)C)[nH]c1=O (stereo not drawn) [MC 1153]
Reply: > 200 µM

Task item: Form field - read-out: CC50; system: mock-infected MT-4 cells; submitted item: CNc1nc(C(C)c2c(F)cccc2F)cc(=O)[nH]1 (stereo not drawn) [MC 1178]
Reply: 106 µM

Task item: Form field - read-out: CC50; system: mock-infected MT-4 cells; submitted item: Cc1c(C(C)c2c(F)cccc2F)nc(SC2CCCCC2)[nH]c1=O (stereo not drawn) [MC 1174]
Reply: > 200 µM

Task item: Form field - read-out: CC50; system: mock-infected MT-4 cells; submitted item: CC(C)Nc1nc(C(C)c2c(F)cccc2F)cc(=O)[nH]1 (stereo not drawn) [MC 1191]
Reply: 115 µM

Task item: Form field - read-out: CC50; system: mock-infected MT-4 cells; submitted item: O=c1cc(Cc2c(F)cccc2F)nc(N2CCCC2)[nH]1 [MC 1196]
Reply: > 200 µM

Task item: Form field - read-out: CC50; system: mock-infected MT-4 cells; submitted item: CSCSc1nc(Cc2c(F)cccc2F)c(C(C)C)c(=O)[nH]1 [MC 1145]
Reply: 200 µM

Task item: Form field - read-out: CC50; system: mock-infected MT-4 cells; submitted item: CCCN(CCC)c1nc(Cc2c(F)cccc2F)cc(=O)[nH]1 [MC 1204]
Reply: > 200 µM

Task item: Form field - read-out: CC50; system: mock-infected MT-4 cells; submitted item: Cc1c(C(C)c2c(F)cccc2F)nc(SC(C)C)[nH]c1=O (stereo not drawn) [MC 1137]
Reply: 200 µM

Task item: Form field - read-out: CC50; system: mock-infected MT-4 cells; submitted item: CCc1c(Cc2c(F)cccc2F)nc(SCSC)[nH]c1=O [MC 1157]
Reply: 50 µM

Task item: Form field - read-out: CC50; system: mock-infected MT-4 cells; submitted item: Cc1c(C(C)c2c(F)cccc2F)nc(SC2CCCC2)[nH]c1=O (single isomer, unassigned) [MC 1047+]
Reply: > 200 µM

Task item: Form field - read-out: CC50; system: mock-infected MT-4 cells; submitted item: Cc1c(Cc2c(F)cccc2F)nc(N2CCN(C)CC2)[nH]c1=O [MC 1203]
Reply: > 200 µM

Task item: Form field - read-out: CC50; system: mock-infected MT-4 cells; submitted item: Cc1c(C(C)c2c(F)cccc2F)nc(NC2CCCCC2)[nH]c1=O (stereo not drawn) [MC 1181]
Reply: 58 µM

Task item: Form field - read-out: CC50; system: mock-infected MT-4 cells; submitted item: CNc1nc(C(C)c2c(F)cccc2F)c(C)c(=O)[nH]1 (stereo not drawn) [MC 1170]
Reply: ≥ 200 µM

Task item: Form field - read-out: CC50; system: mock-infected MT-4 cells; submitted item: CCCCSc1nc(C(C)c2c(F)cccc2F)c(C)c(=O)[nH]1 (stereo not drawn) [MC 1175]
Reply: 112 µM

Task item: Form field - read-out: CC50; system: mock-infected MT-4 cells; submitted item: CSCSc1nc(Cc2ccccc2)cc(=O)[nH]1 [MC 1140]
Reply: > 200 µM

Task item: Form field - read-out: CC50; system: mock-infected MT-4 cells; submitted item: Cc1c(C(C)c2c(F)cccc2F)nc(SC2CCCC2)[nH]c1=O (single isomer, unassigned) [MC 1047−]
Reply: > 200 µM

Task item: Form field - read-out: CC50; system: mock-infected MT-4 cells; submitted item: O=c1cc(Cc2c(F)cccc2F)nc(N2CCOCC2)[nH]1 [MC 1188]
Reply: > 200 µM

Task item: Form field - read-out: CC50; system: mock-infected MT-4 cells; submitted item: O=c1cc(Cc2c(F)cccc2F)nc(N2CCCCC2)[nH]1 [MC 1194]
Reply: > 200 µM

Task item: Form field - read-out: CC50; system: mock-infected MT-4 cells; submitted item: CSCSc1nc(Cc2c(F)cccc2F)c(C)c(=O)[nH]1 [MC 1162]
Reply: 30 µM

Task item: Form field - read-out: CC50; system: mock-infected MT-4 cells; submitted item: CCCCNc1nc(C(C)c2c(F)cccc2F)c(C)c(=O)[nH]1 (stereo not drawn) [MC 1187]
Reply: 83 µM

Task item: Form field - read-out: CC50; system: mock-infected MT-4 cells; submitted item: CCC(C)Nc1nc(C(C)c2c(F)cccc2F)cc(=O)[nH]1 (stereo not drawn) [MC 1192]
Reply: 86 µM

Task item: Form field - read-out: CC50; system: mock-infected MT-4 cells; submitted item: CN1CCN(c2nc(Cc3c(F)cccc3F)cc(=O)[nH]2)CC1 [MC 1183]
Reply: > 200 µM

Task item: Form field - read-out: CC50; system: mock-infected MT-4 cells; submitted item: Cc1c(Cc2c(F)cccc2F)nc(N(C)C)[nH]c1=O [MC 1195]
Reply: > 200 µM

Task item: Form field - read-out: CC50; system: mock-infected MT-4 cells; submitted item: Cc1c(Cc2c(F)cccc2F)nc(N2CCSCC2)[nH]c1=O [MC 1206]
Reply: > 200 µM

Task item: Form field - read-out: CC50; system: mock-infected MT-4 cells; submitted item: O=c1cc(Cc2c(F)cccc2F)nc(N2CCSCC2)[nH]1 [MC 1193]
Reply: > 200 µM
